Target: full length N-terminally FLAG-tagged PARP1 (Homo sapiens)
Sequence (P09874 whole entry): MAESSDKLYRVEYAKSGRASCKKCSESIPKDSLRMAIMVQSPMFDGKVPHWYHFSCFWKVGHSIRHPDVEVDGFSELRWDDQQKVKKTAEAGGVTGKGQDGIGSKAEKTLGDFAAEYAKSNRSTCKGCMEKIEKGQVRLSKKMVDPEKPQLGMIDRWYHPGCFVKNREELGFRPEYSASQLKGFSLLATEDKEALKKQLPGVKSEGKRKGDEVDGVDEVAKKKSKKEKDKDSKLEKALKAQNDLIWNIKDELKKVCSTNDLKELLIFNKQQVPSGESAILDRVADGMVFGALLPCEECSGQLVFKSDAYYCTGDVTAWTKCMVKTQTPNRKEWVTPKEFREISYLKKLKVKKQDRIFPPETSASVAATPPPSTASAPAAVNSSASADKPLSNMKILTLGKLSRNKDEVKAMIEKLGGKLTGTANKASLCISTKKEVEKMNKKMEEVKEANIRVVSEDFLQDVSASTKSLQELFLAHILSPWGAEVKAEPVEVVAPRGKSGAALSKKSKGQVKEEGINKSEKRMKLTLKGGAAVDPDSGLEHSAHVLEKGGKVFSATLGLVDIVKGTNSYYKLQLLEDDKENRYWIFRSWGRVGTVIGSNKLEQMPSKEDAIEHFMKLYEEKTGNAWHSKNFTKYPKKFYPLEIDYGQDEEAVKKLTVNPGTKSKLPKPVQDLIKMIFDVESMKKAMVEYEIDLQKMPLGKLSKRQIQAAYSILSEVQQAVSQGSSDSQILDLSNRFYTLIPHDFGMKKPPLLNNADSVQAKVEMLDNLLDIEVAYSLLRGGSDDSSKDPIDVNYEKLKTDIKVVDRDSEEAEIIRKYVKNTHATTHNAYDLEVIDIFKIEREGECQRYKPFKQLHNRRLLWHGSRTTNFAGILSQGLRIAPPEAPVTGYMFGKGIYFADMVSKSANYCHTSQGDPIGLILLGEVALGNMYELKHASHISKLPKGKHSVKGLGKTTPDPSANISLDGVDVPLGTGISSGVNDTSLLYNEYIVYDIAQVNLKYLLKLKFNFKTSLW
Test: PARP1 biochemical DELFIA assay (auto-PARylation)
Set-up: recombinant full length human N-terminally FLAG-tagged PARP1
Settings: binned IC50, PARP1 biochemical DELFIA assay
Each record here notes measured IC50.

Examples with their reported IC50 follow.
compound="N#Cc1ccc(N2CCC(N3CCCC(c4nc5ccccc5c(=O)[nH]4)C3)CC2)cn1 (single isomer, unassigned) [Compound 70b]" assay_metric=IC50 observed_value="10 to 100 nM"
compound="CNC(=O)c1ccc(N2CCC(N3CCC(c4cc5ccc(F)cc5c(=O)[nH]4)C3)CC2)nn1 (single isomer, unassigned) [Compound 197b]" assay_metric=IC50 observed_value="10 to 100 nM"

Next item in the queue.
Asked: // query IC50 value for entry CNC(=O)c1ccc(N2CCC(N3CCC(c4nc5ccccc5c(=O)[nH]4)C3)CC2)c(C(F)F)n1 (single isomer, unassigned) [Compound 158b]
Given back: 10 to 100 nM

* * *

Biological target: N-terminally FLAG-tagged PARP2 (amino acids 1-583) (Homo sapiens, UniProt Q9UGN5)
Construct: N-terminally FLAG-tagged PARP2 (amino acids 1-583)
Sequence (Q9UGN5 whole entry, the tested form may be a part): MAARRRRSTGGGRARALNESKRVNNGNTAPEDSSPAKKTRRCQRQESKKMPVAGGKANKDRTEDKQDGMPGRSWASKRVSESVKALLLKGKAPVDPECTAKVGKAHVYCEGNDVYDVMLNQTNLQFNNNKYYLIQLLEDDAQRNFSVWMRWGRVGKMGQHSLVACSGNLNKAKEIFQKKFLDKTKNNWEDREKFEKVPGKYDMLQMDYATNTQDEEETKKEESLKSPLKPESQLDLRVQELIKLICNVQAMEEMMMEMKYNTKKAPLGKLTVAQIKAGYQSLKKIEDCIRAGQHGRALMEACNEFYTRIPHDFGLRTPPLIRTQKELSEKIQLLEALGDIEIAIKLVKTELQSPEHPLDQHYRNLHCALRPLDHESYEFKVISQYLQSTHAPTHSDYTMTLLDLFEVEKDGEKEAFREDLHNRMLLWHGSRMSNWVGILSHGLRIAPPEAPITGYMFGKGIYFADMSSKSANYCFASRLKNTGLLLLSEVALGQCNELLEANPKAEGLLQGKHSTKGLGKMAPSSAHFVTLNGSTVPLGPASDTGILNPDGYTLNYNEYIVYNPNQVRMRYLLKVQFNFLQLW
Assay: PARP2 probe displacement HTRF assay
Type: binding
Details: binned Kd, PARP2 probe displacement HTRF
Experimental: Data analysis was performed identical as for PARP1.
Assay Metric: Kd

molecule="CCc1nc(C(=O)NC)ccc1N1CCC(N2CCCC(c3nc4ccccc4c(=O)[nH]3)C2)CC1 (single isomer, unassigned) [Compound 112b]" observed_value="> 10000 nM"
molecule="O=c1[nH]c(CC2CCCN(C3CCC(F)(F)CC3)C2)nc2ccccc12 (single isomer, unassigned) [Compound 11b]" observed_value="1000 to 10000 nM"
molecule=CNC(=O)c1ccc(N2CC(N3CCC(Cc4nc5ccccc5c(=O)[nH]4)CC3)C2)cn1 observed_value="100 to 1000 nM"

Next item in the queue.
Asked: // query Kd value for entry CNC(=O)c1ccc(OCCN2CCC(c3nc4ccccc4c(=O)[nH]3)C2)cn1 (single isomer, unassigned) [Compound 62a]
Given back: 1000 to 10000 nM

* * *

Each record here notes measured pKd.
Target: UniProtKB Q9UGN5
Assay: NanoBRET cellular target occupancy assay, PARP2
Settings: HEK293 cells transiently transfected with PARP2-NanoLuc fusion; tracer 2 nM; 2 hours at 37° C.; Kd by Cheng-Prussoff
pKd: −log10 of the molar value.

Examples with their reported pKd follow.
compound="CNC(=O)c1ccc(N2CCC(N3CCC(c4nc5ccccc5c(=O)[nH]4)C3)CC2)c(F)n1 (racemic)" assay_system="UniProtKB Q9UGN5" observed_value="< 5.00"
compound="CCc1ccc(C2CCN(C3CCN(c4ccc(C(=O)NC)nc4Cl)CC3)C2)[nH]c1=O (single isomer, unassigned) [Compound 239b]" assay_system="UniProtKB Q9UGN5" observed_value="5.00 to 6.00"
compound=CNC(=O)c1ccc(N2CCC(N3CC4(c5nc6c(c(=O)[nH]5)CCC6)CC3C4)CC2)c(F)n1 assay_system="UniProtKB Q9UGN5" observed_value="< 5.00"
compound=CNC(=O)c1ccc(N2CCC(N3CC4(c5nc6c(c(=O)[nH]5)CCC6)CC3C4)CC2)cn1 assay_system="UniProtKB Q9UGN5" observed_value="< 5.00"
compound="CNC(=O)c1ccc(N2CCC(N3CCC(c4cc5ccc(F)cc5c(=O)[nH]4)C3)CC2)c(F)n1 (single isomer, unassigned) [Compound 174b]" assay_system="UniProtKB Q9UGN5" observed_value="6.00 to 7.00"
compound="CNC(=O)c1ccc(N2CCC(N3CCC(c4cc5c(Cl)cccc5c(=O)[nH]4)C3)CC2)cn1 (single isomer, unassigned) [Compound 137b]" assay_system="UniProtKB Q9UGN5" observed_value="6.00 to 7.00"

Asked: // query pKd value for entry CNC(=O)c1ccc(N2CCC(N3CCC(c4cc5c(c(=O)[nH]4)CCCC5)C3)CC2)c(F)n1 (single isomer, unassigned) [Compound 337a]
Given back: 5.00 to 6.00

Asked: And CNC(=O)c1ccc(N2CCC(N3CCC(c4nc5ccccc5c(=O)[nH]4)C3)CC2)cn1 (single isomer, unassigned) [Compound 10b] ?
Given back: 5.00 to 6.00

Asked: And CNC(=O)c1ccc(N2CCC(N3CCC(c4cc5ccc(F)cc5c(=O)[nH]4)C3)CC2)nn1 (single isomer, unassigned) [Compound 197a] ?
Given back: 6.00 to 7.00

Asked: And CNC(=O)c1ccc(N2CCC(N3CCC(c4cc5c(F)ccc(F)c5c(=O)[nH]4)C3)CC2)c(F)n1 (single isomer, unassigned) [Compound 323a] ?
Given back: < 5.00

Asked: And CNC(=O)c1ccc(N2CCC(N3CC4(c5nc6c(c(=O)[nH]5)CCCN6)CC3C4)CC2)cn1 ?
Given back: 5.00 to 6.00

Asked: And CNC(=O)c1ccc(N2CCC(N3CCC(c4cc5cccc(F)c5c(=O)[nH]4)C3)CC2)cn1 (single isomer, unassigned) [Compound 136b] ?
Given back: 6.00 to 7.00

Asked: And CCc1ccc(C2CCN(C3CCN(c4ccc(C(=O)NC)nc4F)CC3)C2)[nH]c1=O (single isomer, unassigned) [Compound 151a] ?
Given back: < 5.00

* * *

Biological target: full length N-terminally FLAG-tagged PARP1 (Homo sapiens)
Test: PARP1 biochemical DELFIA assay (auto-PARylation)
Set-up: recombinant full length human N-terminally FLAG-tagged PARP1
Conditions: binned IC50, PARP1 biochemical DELFIA assay
pIC50: −log10 of the molar value.
Each record here notes measured pIC50.

compound="CNC(=O)c1ccc(N2CCC(N3CCC(c4cc5ccc(F)cc5c(=O)[nH]4)C3)CC2)cn1 (single isomer, unassigned) [Compound 154a]" assay_metric=pIC50 observed_value="> 8.00"

Asked: What pIC50 appears in the records for this compound with full length N-terminally FLAG-tagged PARP1 (Homo sapiens)? CNC(=O)c1ccc(N2CCC(N3CCCC(c4ccc(C(C)C)c(=O)[nH]4)C3)CC2)cn1 (racemic) [Compound 132rac]
Given back: 7.00 to 8.00

Asked: And CNC(=O)c1ccc(N2CCC(N3CCC(c4nc5c(c(=O)[nH]4)CCCC5)C3)CC2)cn1 (single isomer, unassigned) [Compound 155b] ?
Given back: > 8.00

Asked: And CNC(=O)c1ccc(N2CCC(N3CCC(c4nc5ccccc5c(=O)[nH]4)C3)CC2)c(C)n1 (single isomer, unassigned) [Compound 125b] ?
Given back: > 8.00

Asked: And CNC(=O)c1ccc(N2CCC(N3CCC(c4nc5onc(C(F)(F)F)c5c(=O)[nH]4)C3)CC2)cn1 (single isomer, unassigned) [Compound 176b] ?
Given back: 7.00 to 8.00

Asked: And CNC(=O)c1ccc(N2CCC(N3CCC(c4cc5cccc(Cl)c5c(=O)[nH]4)C3)CC2)cn1 (single isomer, unassigned) [Compound 128a] ?
Given back: 7.00 to 8.00

* * *

Each record here notes measured pKd.
Biological target: N-terminally FLAG-tagged PARP2 (amino acids 1-583) (Homo sapiens)
Construct: N-terminally FLAG-tagged PARP2 (amino acids 1-583)
Test: PARP2 probe displacement HTRF assay
Format: binding
Settings: binned Kd, PARP2 probe displacement HTRF
pKd: −log10 of the molar value.

compound="CNC(=O)c1ccc(N2CCC(N3CCC(c4nc5[nH]nc(C(F)(F)F)c5c(=O)[nH]4)C3)CC2)cn1 (single isomer, unassigned) [Compound 162b]" assay_system="N-terminally FLAG-tagged PARP2 (amino acids 1-583) (Homo sapiens)" assay_metric=pKd observed_value="7.00 to 8.00"

Asked: // query pKd value for entry CCc1ccc(C2CCN(C3CCN(c4ccc(C(=O)NC)nc4F)CC3)C2)[nH]c1=O (single isomer, unassigned) [Compound 151b]
Given back: < 5.00

Asked: And CNC(=O)c1ccc(N2CCC(N3CCC(c4nc5ccccc5c(=O)[nH]4)C3)CC2)cn1 (racemic) [Compound 10rac] ?
Given back: 6.00 to 7.00

Asked: And CNC(=O)c1cnc(N2CCC(N3CCCC(c4nc5ccccc5c(=O)[nH]4)C3)CC2)cn1 (single isomer, unassigned) [Compound 99a] ?
Given back: < 5.00

Asked: And CNC(=O)c1ccc(N2CCC(N3CCC(c4cc5cccc(F)c5c(=O)[nH]4)C3)CC2)nn1 (single isomer, unassigned) [Compound 209a] ?
Given back: 6.00 to 7.00

Asked: And CNC(=O)c1ccc(N2CCC(N3CCC(c4nc5c(c(C(F)(F)F)nn5C)c(=O)[nH]4)C3)CC2)cn1 (single isomer, unassigned) [Compound 187a] ?
Given back: 6.00 to 7.00

* * *

Molecular target: N-terminally FLAG-tagged PARP2 (amino acids 1-583) (Homo sapiens)
Construct: N-terminally FLAG-tagged PARP2 (amino acids 1-583)
Assay: PARP2 probe displacement HTRF assay
Format: binding
Details: binned Kd, probe displacement HTRF
Each record here notes measured Kd.

Examples with their reported Kd follow.
molecule="CCc1ccc(C2CCN(C3CCN(c4ccc(C(=O)NC)c(F)c4)CC3)C2)[nH]c1=O (racemic)" assay_system="N-terminally FLAG-tagged PARP2 (amino acids 1-583) (Homo sapiens)" observed_value="100 to 1000 nM"
molecule="CS(=O)(=O)Nc1ccc(N2CCC(N3CCC(c4nc5ccccc5c(=O)[nH]4)C3)CC2)cn1 (single isomer, unassigned) [Compound 291a]" assay_system="N-terminally FLAG-tagged PARP2 (amino acids 1-583) (Homo sapiens)" observed_value="1000 to 10000 nM"
molecule="CCc1ccc(C2CCN(C3CCN(c4cnc(C(=O)NC)cc4F)CC3)C2)[nH]c1=O (racemic)" assay_system="N-terminally FLAG-tagged PARP2 (amino acids 1-583) (Homo sapiens)" observed_value="1000 to 10000 nM"
molecule="CCc1ccc(C2CCN(C3CCN(c4ccc(C(=O)NC5CC5)nc4)CC3)C2)[nH]c1=O (single isomer, unassigned) [Compound 338b]" assay_system="N-terminally FLAG-tagged PARP2 (amino acids 1-583) (Homo sapiens)" observed_value="1000 to 10000 nM"

Asked: // query Kd value for entry CNC(=O)c1ccc(N2CCC(N3CCC(c4cc5cccc(OC)c5c(=O)[nH]4)C3)CC2)cn1 (single isomer, unassigned) [Compound 249b]
Given back: > 10000 nM

Asked: And O=C(NC1COC1)c1ccc(N2CCC(N3CCC(c4nc5ccccc5c(=O)[nH]4)C3)CC2)cn1 (racemic) ?
Given back: 100 to 1000 nM
